- assay-target: LasB (Pseudomonas aeruginosa, UniProt P14756)
- Construct: uses as source of enzyme dialysed supernatant from P. aeruginosa PAO1; endogenous in cells; host or cells: P. aeruginosa PAO1 culture supernatant, filtered and dialysed
- measurement-protocol: Elastin assay to determine % inhibition (Elastin Congo-Red, dialysed culture supernatant)
- Assay type: biochemical, P. aeruginosa PAO1
- condition-notes: read-out: Elastin hydrolysis % inhibition @ 50 / 25 µM inhibitor concentration
value-kind: inhibition at 25 µM

Take a look at these entries with their results.
Give the measured inhibition at 25 µM of `CN1CCN(S(=O)(=O)c2ccc(-c3csc(CNC(=O)C4(CC(=O)O)Cc5ccccc5C4)n3)cc2)CC1` .
60 to 75%

Quick check: inhibition at 25 µM of `O=C(O)CC1(C(=O)NCc2nc(-c3cnn(CCCN4CCCOCC4)c3)cs2)Cc2ccccc2C1` ?
60 to 75%

Turning now to a further compound:
Form field: reported inhibition at 25 µM of `CN1CCN(C(=O)Nc2ccc(-c3csc(CNC(=O)C4(CC(=O)O)Cc5ccccc5C4)n3)cc2)CC1`
60 to 75%

---

- assay-target: purified LasB protein from P. aeruginosa (Pseudomonas aeruginosa, UniProt P14756)
- Construct: purchased Merck or Charles River Laboratories
- Sequence (P14756 198-498): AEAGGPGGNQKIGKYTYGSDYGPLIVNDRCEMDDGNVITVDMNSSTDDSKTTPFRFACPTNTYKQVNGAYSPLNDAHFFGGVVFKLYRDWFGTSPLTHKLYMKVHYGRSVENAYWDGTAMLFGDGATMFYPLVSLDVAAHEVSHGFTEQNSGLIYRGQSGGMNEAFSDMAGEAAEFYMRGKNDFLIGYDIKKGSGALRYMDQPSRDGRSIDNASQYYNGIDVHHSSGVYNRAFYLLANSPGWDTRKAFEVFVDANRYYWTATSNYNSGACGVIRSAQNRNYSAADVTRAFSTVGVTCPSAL
- measurement-protocol: Fluorometric assay to determine Ki (Abz-Ala-Gly-Leu-Ala-p-Nitro-Benzyl-Amide substrate)
- Format: biochemical
pKi: −log10 of the molar value.
value-kind: pKi

Example entries begin here.
Any idea what its pKi is? The compound is CN1CCN(c2ccc(-c3csc(CNC(=O)C4(CC(=O)O)Cc5ccccc5C4)n3)cc2)CC1 [Example 26]
6.70 to 7.30

Entry CN(C)CC#Cc1ccc(-c2csc(CNC(=O)C3(CC(=O)O)Cc4ccccc4C3)n2)cc1 [Example 37] has what pKi?
6.70 to 7.30

So what's the measured pKi for this one? CN(C)C1CCN(S(=O)(=O)c2cc(-c3csc(CNC(=O)C4(CC(=O)O)Cc5cc(F)c(F)cc5C4)n3)ccc2OCCCN2CCCC2)CC1 [Example 139]
6.70 to 7.30

Could you tell me which pKi is on file for O=C(O)CC1(C(=O)NCc2nc(-c3cncnc3)cs2)Cc2ccccc2C1 [Example 94] ?
5.00 to 6.70

Requested field: pKi. Item: C[N+]1(CCc2ccc(-c3csc(CNC(=O)C4(CC(=O)[O-])Cc5ccccc5C4)n3)cn2)CCOCC1 [Example 141]
6.70 to 7.30

Further cases:
Query: pKi; subject: CN1CCN(CC(=O)Nc2ccc(-c3csc(CNC(=O)C4(CC(=O)O)Cc5ccccc5C4)n3)cc2)CC1 [Example 45]
6.70 to 7.30

Item COc1cc(OCC[N+]2(C)CCOCC2)ccc1-c1csc(CNC(=O)C2(CC(=O)[O-])Cc3ccccc3C2)n1 [Example 67] has what recorded pKi?
6.70 to 7.30

Need pKi, item COc1cc(N2CC(N(C)C)C2)ccc1-c1csc(CNC(=O)C2(CC(=O)O)Cc3ccccc3C2)n1 [Example 32]
6.70 to 7.30

For COc1cc(OCC[N+]2(C)CCN(C)C(=O)C2)ccc1-c1csc(CNC(=O)C2(CC(=O)[O-])Cc3ccccc3C2)n1 (stereo not drawn) [Example 84] , what is its reported pKi?
6.70 to 7.30

Using the record for COC1CCN(CCCn2cc(-c3csc(CNC(=O)C4(CC(=O)O)Cc5ccccc5C4)n3)cn2)CC1 [Example 110] , report its pKi.
6.70 to 7.30

Entry under review: Cc1nn(C)cc1-c1csc(CNC(=O)C2(CC(=O)O)Cc3ccccc3C2)n1 [Example 93] . Reported pKi?
6.70 to 7.30

Entry under review: CN1CCN(C(=O)c2cccc(-c3csc(CNC(=O)C4(CC(=O)O)Cc5ccccc5C4)n3)c2)CC1 [Example 23] . Reported pKi?
5.00 to 6.70
